B1: ISL2 (parent)
chain: HYPFLGAMGDHSKKKPGTAMCVGC

# Variants of: B1
# Experimental Details: protein stability index of a GFP-peptide fusion (GPS, HEK-293T) (PSI 1-6); higher = more stable;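 also: lentivirally expressed fusions sorted by FACS into six bins by GFP to DsRed ratio, PSI derived from sequencing read proportions per bin multiplied by bin number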
# Assay Setup: c terminus: a fixed tail appended
Entries and their protein stability index
Respond using a number only.

• L5K = 2.47

QUERY: Give the reported protein stability index for this variant. P3N
RESULT: 2.5

QUERY: Give the reported protein stability index for this variant. G6K
RESULT: 2.92

Reference source for all entries: the supplement of paper PMC10567573
